# Test system: T-47D breast
# method: NCI-60 one-dose screen, 48 h (100 = growth as untreated, 0 = no growth, -100 = all killed)
# setup conditions: 10 µM
Compounds without any hit were thinned out: in the full panel of roughly 83,000, 20% have a hit.
Values of growth greater than or equal to 90% map to Fulfilled; values below map to Not fulfilled.

Answered examples (3):
* NC1=C(Cl)C(=O)c2ccccc2C1=O | Not fulfilled
* COc1ccc(CC(=O)c2ccc(O)cc2O)cc1 | Fulfilled
* CCCCCCCCCCSC(=N)N | Not fulfilled

Exam item: Could you verify whether the entry "CCCCCCCCCCCC[N+](C)(C)Cc1ccccc1" shows growth of no less than 90%?
Marked response: Not fulfilled

Exam item: Hello, I need to know if "Cc1cc(O)c(C(C)C)cc1Cl" has measured growth not below 90%. Thanks!
Marked response: Fulfilled

Exam item: Is growth at least 90%? Consider COC(=O)C1C(O)C(C)C(O)C(C)C=C(C)C2=C3C(=C(C)C(=O)c4c(O)c(c(C)c(OC(C)=O)c43)NC(=O)C(C)=C/C=C\C(C)C(O)C(C)C1O)OCO2 (configuration not stated)
Marked response: Fulfilled

Exam item: Assess whether reported growth for CO[C@H](C(=O)[C@@H](O)[C@@H](C)O)[C@@H]1Cc2cc3cc(OC4CC(OC5CC(O)C(O)C(C)O5)C(O)C(C)O4)c(C)c(O)c3c(O)c2C(=O)[C@H]1OC1CC(OC2CC(OC3CC(C)(O)C(O)C(C)O3)C(O)C(C)O2)C(O)C(C)O1 (some centres not stated) sits at 90% or higher.
Marked response: Not fulfilled

Exam item: // inclusive: growth at least 90%? input: CSC1SCC2C(=O)N(C)C(C(C)C)C(=O)OCC(NC(=O)c3cnc4ccccc4n3)C(=O)NC(C)C(=O)N(C)C1C(=O)N(C)C(C(C)C)C(=O)OCC(NC(=O)c1cnc3ccccc3n1)C(=O)NC(C)C(=O)N2C (configuration not stated)
Marked response: Not fulfilled

###

# Tested on: HCT-15 colon
# method: NCI-60 one-dose screen, 48 h (100 = growth as untreated, 0 = no growth, -100 = all killed)
# setup conditions: 10 µM
# Protocol: Growth inhibition of the HCT-15 human tumor cell line is measured as a screen for anti-cancer activity. Cells are grown in 96 well plates and exposed to the test compound for 48 hours. Compounds are tested at a single concentration, which is 10^-5 M for most compounds. The reported endpoint is percent growth (GI% or GIPRCNT), where numbers from 0 - 100% represent growth inhibition, and numbers from -100% - 0 represent cell death. For example, a value of 40 represents 60% growth inhibition. […]
This is part of a sample that, as a whole, favours compounds with a hit. Of some 83,000 tested, about 20% had one in any assay.
Listing of entries alongside the reported growth.
Give just the number in %; leave the unit off.

• CO[C@H](C(=O)[C@@H](O)[C@@H](C)O)[C@@H]1Cc2cc3cc(OC4CC(OC5CC(O)C(O)C(C)O5)C(O)C(C)O4)c(C)c(O)c3c(O)c2C(=O)[C@H]1OC1CC(OC2CC(OC3CC(C)(O)C(O)C(C)O3)C(O)C(C)O2)C(O)C(C)O1 (some centres undefined) = 6.74
• Oc1ccc(N=Nc2ccccn2)c(O)c1 = 30.5
• O=C1NC(=O)c2cc([N+](=O)[O-])ccc21 = 107
• Clc1cc(Cl)c(Cl)nn1 = 107

Exam item: Fill in the blank: the reported growth of "CCC(C)(C)c1cc(O)c(C(C)(C)CC)cc1O" is ____.
Marked response: 43.8

Exam item: Form field: reported growth of "CCCCCCCCCCSC(=N)N"
Marked response: -4.11

Exam item: Query: growth; subject: "CC(C)(C)CC(C)(C)c1ccc(OCCO)cc1"
Marked response: 99.8

Exam item: Given "CCO/C=C1\SC(=S)N(c2cccc(O)c2)C1=O" , state its recorded growth.
Marked response: 104

Exam item: Which growth value belongs to "O=C(/C=C/c1ccccn1)c1ccccc1" ?
Marked response: -8.15

Exam item: Return reported growth; argument: "NC1=C(Cl)C(=O)c2ccccc2C1=O"
Marked response: 51

###

# Test system: SF-268 CNS
# method: NCI-60 one-dose screen, 48 h
# setup conditions: 10 µM
Compounds without any hit were thinned out: in the full panel of roughly 83,000, 20% have a hit. Activity calls are given as the source filed them. Rule for the calls: active = growth percent below 10; inactive = the rest.
Assign a class; possible classes are 1 (active), -1 (inactive)

Solved cases below.
* OC(CN1CCCC2CCCCC21)c1cc2ccccc2c2ccccc12 (configuration not stated) | -1
* COc1cccc2c1C(=O)c1c(O)c3c(c(O)c1C2=O)C[C@@](O)(C(C)=O)C[C@@H]3OC1CC(N)C(O)C(C)O1 (some centres not stated) | 1
* CCN1/C(=C/C=C/C=C/c2sc3ccccc3[n+]2CC)Sc2ccccc21 | 1
* CCCCCC(C)c1ccc(O)c(C)c1 (configuration not stated) | -1
* O=C(/C=C/c1cccnc1)c1ccccc1 | -1
* CS(=O)(=O)OC1CC(n2ccc(=O)[nH]c2=O)OC1COC(c1ccccc1)(c1ccccc1)c1ccccc1 (configuration not stated) | -1
* CC1=CC(C)=Nc2ccc(Cl)cc2N1 | -1
* CC(C)(C)CC(C)(C)c1ccc(OCCO)cc1 | -1

Exam item: Just curious, what result did "COc1c(O)cc2oc3cc(O)c(CC=C(C)C)c(O)c3c(=O)c2c1CC=C(C)C" get here?
Marked response: -1

Exam item: Could you check what this test reported for "NC1=C(Cl)C(=O)c2ccccc2C1=O" ?
Marked response: -1

###

# Tested on: KM12 colon
# method: NCI-60 one-dose screen, 48 h
# setup conditions: 10 µM
About 83,000 compounds went through this panel and 20% of them were active in at least one assay; those are over-represented in the sample as a whole. Calls of active or inactive are those of the source. How the source made its calls: active means growth percent below 10; inactive means the rest.
The reply should be one of these categories: active, inactive

* O=C(/C=C/c1ccccn1)c1ccccc1 | active
* CO[C@H](C(=O)[C@@H](O)[C@@H](C)O)[C@@H]1Cc2cc3cc(OC4CC(OC5CC(O)C(O)C(C)O5)C(O)C(C)O4)c(C)c(O)c3c(O)c2C(=O)[C@H]1OC1CC(OC2CC(OC3CC(C)(O)C(O)C(C)O3)C(O)C(C)O2)C(O)C(C)O1 (stereo partly specified) | active
* CC[N+](CC)=c1ccc2nc3c(cc(N)c4ccccc43)oc-2c1 | active

Exam item: What did the test return for "COc1c(O)cc2oc3cc(O)c(CC=C(C)C)c(O)c3c(=O)c2c1CC=C(C)C" ?
Marked response: inactive

Exam item: Each molecule tested received a call. Report the one for "O=C1NC(=O)c2cc([N+](=O)[O-])ccc21" .
Marked response: inactive

Exam item: Answer briefly: the call reported for O=c1ccn(C2CC(O)C(COC(c3ccccc3)(c3ccccc3)c3ccccc3)O2)c(=O)[nH]1 (stereo unspecified) in this assay.
Marked response: inactive

Exam item: Field: outcome | Entry: "Clc1cc(Cl)c(Cl)nn1"
Marked response: inactive

Exam item: Which outcome did this test record for the molecule "Oc1ccc(N=Nc2ccccn2)c(O)c1" ?
Marked response: inactive

Exam item: How was "Cc1nc(N=C(N)N)nc2ccc3ccccc3c12" classified in this test?
Marked response: active

###

# System: SNB-19 CNS
# method: NCI-60 one-dose screen, 48 h
# setup conditions: 10 µM
This is part of a sample that, as a whole, favours compounds with a hit. Of some 83,000 tested, about 20% had one in any assay. The source made the active and inactive calls. How the source made its calls: active means growth percent below 10; inactive means the rest.
Please answer using one outcome listed in active, inactive

* COc1cccc2c1C(=O)c1c(O)c3c(c(O)c1C2=O)C[C@@](O)(C(C)=O)C[C@@H]3OC1CC(N)C(O)C(C)O1 (stereo partly drawn) | active
* N=S(c1ccccc1[N+](=O)[O-])c1ccccc1[N+](=O)[O-] | inactive

Now examine the next entry.
Exam item: Assay outcome for "CCCCCCCCCCCC[N+](C)(C)Cc1ccccc1" : what was it?
Marked response: inactive

###

# System: 786-0 renal
# method: NCI-60 one-dose screen, 48 h (100 = growth as untreated, 0 = no growth, -100 = all killed)
# setup conditions: 10 µM
The panel holds about 83,000 compounds, 20% with a hit somewhere; the sample as a whole holds those more often.
Catalogue of growth values
Give the quantity in %, number only.

A selection of reference data follows.
• CCCCCCCCCCCC[N+](C)(C)Cc1ccccc1 = 28.1
• CC(=O)OCC(OC(C)=O)C(OC(C)=O)C(OC(C)=O)C(OC(C)=O)C(/C=N/Nc1ccccc1)=N/Nc1ccccc1 (stereo not drawn) = 63.6
• Oc1ccc(N=Nc2ccccn2)c(O)c1 = 10.3

Exam item: Sample "CC(C)(C)CC(C)(C)c1ccc(OCCO)cc1" — what was its growth?
Marked response: 109

Exam item: For "Cc1nc(N=C(N)N)nc2ccc3ccccc3c12" , what is its reported growth?
Marked response: 10.8

Exam item: I would be grateful if you could share the reported growth for "NC1=C(Cl)C(=O)c2ccccc2C1=O" .
Marked response: 106

Exam item: What does the data say about its growth? Entry: "CCCCCCCCCCSC(=N)N"
Marked response: 51

Exam item: What does the record list as growth for CSC1SCC2C(=O)N(C)C(C(C)C)C(=O)OCC(NC(=O)c3cnc4ccccc4n3)C(=O)NC(C)C(=O)N(C)C1C(=O)N(C)C(C(C)C)C(=O)OCC(NC(=O)c1cnc3ccccc3n1)C(=O)NC(C)C(=O)N2C (stereo not drawn) ?
Marked response: -10.6

Exam item: Consider the compound shown here: CCN(CC)c1ccc(NC(C(=O)c2ccccc2)c2ccccc2)cc1 (stereo not drawn) What is its recorded growth?
Marked response: -57.1

Exam item: growth for "Clc1ccc(/C=C/c2ccccn2)c(Cl)c1" ?
Marked response: 105

Exam item: Quick check: growth of COc1cccc2c1C(=O)c1c(O)c3c(c(O)c1C2=O)C[C@@](O)(C(C)=O)C[C@@H]3OC1CC(N)C(O)C(C)O1 (stereo partly drawn) ?
Marked response: -18.5
